inhibition of RTX-induced edema in certain animals: recorded values
Test system: mouse ear
Assay: Inhibition of resiniferatoxin (RTX)-induced edema in a mouse ear model
Assay type: in vivo
Conditions: 50 μg on the ear, certain animals

// worked examples, inhibition of RTX-induced edema in certain animals included
Compound	Obs Value
O=C1NC[C@H](c2c[nH]c3cc(Br)ccc23)N=C1c1c[nH]c2cc(Br)ccc12	~100%
NCC(c1c[nH]c2cc(Br)ccc12)c1c[nH]c2cc(Br)ccc12	~100%
Brc1ccc2c(-c3c[nH]c(-c4c[nH]c5ccccc45)n3)c[nH]c2c1	~100%

// query Form entry - test system: mouse ear; read-out: inhibition of RTX-induced edema in certain animals; compound: CS(=O)(=O)Oc1ccc2c(C(=O)c3nc(-c4c[nH]c5cc(Br)ccc45)c[nH]3)c[nH]c2c1 [o-mesylbromotopsentin, bromotopsentin-O-mesylate]
// result 70%

###

Tested on: mouse ear
Assay: Inhibition of resiniferatoxin (RTX)-induced edema in a mouse ear model
Type: in vivo
Settings: 50 μg/ear
With a cut-off of 0.9 mg, any Mean difference strictly below it is called Yes; any Mean difference meeting it or above is called No.

Illustrative cases are given below, each with its answer.
Compound	Label Class
O=C1NC[C@H](c2c[nH]c3cc(Br)ccc23)N=C1c1c[nH]c2cc(Br)ccc12 [Hamacanthin B]	Yes
CC(c1c[nH]c(N)n1)c1ccc(O)c2[nH]cc(-c3cnc(-c4c[nH]c5cc(Br)ccc45)c(=O)[nH]3)c12 (stereo not drawn) [Dragmacidin d, Dragmacidin-d]	No

// query Answer whether the compound CS(=O)(=O)Oc1ccc2c(C(=O)c3nc(-c4c[nH]c5cc(Br)ccc45)c[nH]3)c[nH]c2c1 [o-mesylbromotopsentin, bromotopsentin-O-mesylate] has Mean difference strictly less than 0.9 mg
// result No

// query What about this compound? Brc1ccc2c(-c3c[nH]c(-c4c[nH]c5cc(Br)ccc45)n3)c[nH]c2c1 [Nortopsentin A]
// result Yes

// query NCC(c1c[nH]c2cc(Br)ccc12)c1c[nH]c2cc(Br)ccc12 [2,2-bis(6-bromoindol-3-yl)ethyl amine] ?
// result Yes

// query Entry O=C(C1=NC(c2c[nH]c3cc(Br)ccc23)CN1)c1c[nH]c2ccccc12 (stereo not drawn) [4,5-dihydro-6"-deoxybromotopsentin] please
// result No

// query # iterate: O=C(c1nc(-c2c[nH]c3ccccc23)c[nH]1)c1c[nH]c2cc(O)ccc12 [Topsentin]
// result No

// query Quick one: Brc1ccc2c(-c3c[nH]c(-c4c[nH]c5ccccc45)n3)c[nH]c2c1 [Nortopsentin C]
// result Yes

Origin of the recorded values: patent US5955462A
